B1: POMT2 (parent)
chain: VKYNSCADRPFSAPWWFWLSLTGV

variants of: B1; assay: protein stability index of a GFP-peptide fusion (GPS, HEK-293T) (PSI 1-6); higher = more stable; conditions: c terminus: a fixed tail appended;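 further: lentivirally expressed fusions sorted by FACS into six bins by GFP to DsRed ratio, PSI derived from sequencing read proportions per bin multiplied by bin number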
experimental-readout: protein stability index
Please give the numeric answer without any surrounding text.

Q) Request the reported protein stability index associated with `W18A`
A) 2.22

Q) Request the reported protein stability index associated with `W18T`
A) 3.52

Q) Request the reported protein stability index associated with `P10M`
A) 1.94

Q) Request the reported protein stability index associated with `S20Y`
A) 2.25

Q) Request the reported protein stability index associated with `G23V`
A) 2.98

Q) Request the reported protein stability index associated with `S5P`
A) 2.39

Q) Request the reported protein stability index associated with `S20I`
A) 2.08

Q) Request the reported protein stability index associated with `F17T`
A) 3.3

Q) Request the reported protein stability index associated with `V1C`
A) 2.99
